System: nutsedge, yellow (yellow nutsedge, Cyperus esculentus)
Assay: Test C greenhouse herbicide test, pre- and postemergence
Assay type: in vivo
Details: Preemergence, 62 g ai/ha; scale 0 to 100, 0 is no effect, 100 is complete control
parameter: Plant response rating, Nutsedge, Yellow
Output spec: single numeric token, no unit.

{"molSmiles": "CC(=O)Oc1c(C)nn(C)c(=O)c1-c1c(C)cc(C)c2ccccc12", "studySystem": "nutsedge, yellow (yellow nutsedge, Cyperus esculentus)", "quantitativeReadout": 70}
{"molSmiles": "CCC(=O)Oc1c(C)nn(C)c(=O)c1-c1ccc(Br)c2ccccc12", "studySystem": "nutsedge, yellow (yellow nutsedge, Cyperus esculentus)", "quantitativeReadout": 45}
{"molSmiles": "COC(=O)Oc1c(OC)nn(C)c(=O)c1-c1c(C)ccc2ccccc12", "studySystem": "nutsedge, yellow (yellow nutsedge, Cyperus esculentus)", "quantitativeReadout": 35}

Please state recorded Plant response rating, Nutsedge, Yellow (tested on nutsedge, yellow (yellow nutsedge, Cyperus esculentus)) of `Cc1nn(C)c(=O)c(-c2c(C)sc3ccc(C(F)(F)F)cc23)c1O`
25

Next molecule up: `Cc1ccc2ccccc2c1-c1c(OC(=O)OC(C)C)c(C)nn(C)c1=O`
10

* * *

Tested on: barley, winter (winter barley, Hordeum vulgare)
Assay: Test D controlled growth environment herbicide test, pre- and postemergence
Format: in vivo
Settings: Preemergence, 125 g ai/ha; scale 0 to 100 (0 no effect, 100 complete control)
Text: […]
parameter: Plant response rating, Barley, Winter
Field format: numeric only.

{"compound": "Cc1cc2ccccc2c(-c2c(O)c(C)nn(C)c2=O)c1C [Compound 34]", "Plant response rating, Barley, Winter": 0}

Entry Cc1ccc2ccccc2c1-c1c(OC(=O)OC(C)C)c(C)nn(C)c1=O [Compound 72] : reported Plant response rating, Barley, Winter = ?
50

Also CCCC(=O)Oc1c(C)nn(C)c(=O)c1-c1c(C)sc2ccc(C)cc12 [Compound 105] , if possible.
10

What do you get for Cc1nn(C)c(=O)c(-c2c(C)sc3ccc(Br)cc23)c1O [Compound 22] ?
0

// same read-out, input: Cc1nn(C)c(=O)c(-c2cccc3ccccc23)c1O [Compound 11]
5

* * *

Tested on: lambsquarters (Chenopodium album)
Assay: Test C greenhouse herbicide test, pre- and postemergence
Format: in vivo
Settings: Preemergence, 125 g ai/ha; scale 0 to 100, 0 is no effect, 100 is complete control
# Plant response rating, Lambsquarters values compiled below
// no unit, no text: just the number

{"molSmiles": "CCC(=O)Oc1c(OC)nn(C)c(=O)c1-c1c(C)sc2ccc(Cl)cc12", "Plant response rating, Lambsquarters": 85}

Please look up its Plant response rating, Lambsquarters: `Cc1cc(C)c2ccccc2c1-c1c(O)c(C)nn(C)c1=O`
98

Next: `Cc1ccc2ccccc2c1-c1c(OC(=O)OC(C)C)c(C)nn(C)c1=O`
85

Request: `CC(=O)Oc1c(Cl)nn(C)c(=O)c1-c1c(C)sc2ccc(C(F)(F)F)cc12`
90

And the next one, `Cc1sc2ccccc2c1-c1c(O)c(Cl)nn(C)c1=O` ?
98

Here is the next compound: `COC(=O)Oc1c(C)nn(C)c(=O)c1-c1ccc(Br)c2ccccc12`
100

What do you get for `Cc1ccc2ccccc2c1-c1c(O)c(Br)nn(C)c1=O` ?
95

Repeat for the following compound: `CC(=O)Oc1c(Cl)nn(C)c(=O)c1-c1c(C)sc2ccc(Cl)cc12`
90

Please answer likewise for `Cc1cc(C)c2sc(C)c(-c3c(O)c(C)nn(C)c3=O)c2c1`
100

Query `COC(=O)Oc1cnn(C)c(=O)c1-c1c(C)sc2ccccc12` next
20
